ASSAY METRIC: melting point

Reference set (3 entries):
{"MOLECULE": "O=C(O)CCCCCc1nn(-c2ccc(Cl)cc2)c2c1CCC2", "melting point": "99 to 101 °C"}
{"MOLECULE": "Cc1cccc2ncc(-c3nnnn3C)c(=O)n12", "melting point": "232 to 234 °C"}
{"MOLECULE": "CCOC(=O)c1cnn(-c2c(F)cc(C(F)(F)F)cc2Cl)c1N", "melting point": "147 to 149 °C"}

Req: Which melting point is listed for CCOC(=O)c1cnc2[nH]c(-c3cc(OCc4ccccc4)ccc3OC(C)C)nc2c1 ?
Resp: 138 to 140 °C

Req: Recorded melting point for CC(=O)Nc1cccc(-c2ccnc3c(Cc4ccccc4)cnn23)c1 , please?
Resp: 205 to 207 °C

Req: Fill blank: measured melting point of the molecule O=C(O)CON=C1CCCc2cc(OCCn3ccnc3)ccc21 is ____.
Resp: 193 to 195 °C

Req: Return reported melting point; argument: CC(F)C(C)(N)C(=O)O (stereo not given)
Resp: 226 °C

Req: Quick one: melting point of CCCN1C(=O)C(NC(=O)Nc2cccc(C)c2)N=C(N(C)C2CCCCC2)c2ccccc21 (single isomer, unassigned; (+)) ?
Resp: 126 to 127 °C

Req: So what's the measured melting point for this one? CN(Cc1cc(C(=O)O)ccc1N)C1CCCCC1
Resp: 200 to 205 °C

Ref: a melting point compilation (Tetko et al.; mined from patent text by program, amines drawn as free bases though some values may be those of a salt)
